B1: ZNF24 (parent)
chain: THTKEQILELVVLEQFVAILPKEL

Variants of: B1
Assay: protein stability index of a GFP-peptide fusion (GPS, HEK-293T) (PSI 1-6); higher = more stable;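 note: lentivirally expressed fusions sorted by FACS into six bins by GFP to DsRed ratio, PSI derived from sequencing read proportions per bin multiplied by bin number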
Settings: c terminus: a fixed tail appended
protein stability index for assorted variants

| MUTATION_CODE | protein stability index |
| --- | --- |
| E14H | 2.94 |
| A18H | 3.02 |
| I19F | 2.22 |

Entry under test: "P21M" . Its protein stability index was 3.76

Entry under test: "T3I" . Its protein stability index was 2.65

Entry under test: "E14W" . Its protein stability index was 3.05

Entry under test: "V11Y" . Its protein stability index was 1.91

Entry under test: "A18Y" . Its protein stability index was 2.59

Entry under test: "Q15D" . Its protein stability index was 1.91

Entry under test: "L8I" . Its protein stability index was 2.79

Entry under test: "V17T" . Its protein stability index was 1.97

Entry under test: "K4Y" . Its protein stability index was 2.51

Entry under test: "I19D" . Its protein stability index was 1.77

Entry under test: "K4M" . Its protein stability index was 2.91

Entry under test: "V11L" . Its protein stability index was 2.43

Entry under test: "K22C" . Its protein stability index was 2.67

Entry under test: "V17H" . Its protein stability index was 2.25

Entry under test: "V12G" . Its protein stability index was 1.98

Entry under test: "H2G" . Its protein stability index was 2.96

Entry under test: "L8F" . Its protein stability index was 3.62

Entry under test: "V17M" . Its protein stability index was 2.31

Entry under test: "E9A" . Its protein stability index was 3.22

Entry under test: "E5R" . Its protein stability index was 3.65

Entry under test: "L13Y" . Its protein stability index was 2.88
